Source: ChEMBL document CHEMBL4219144

assay comment: Cmax in Sprague-Dawley rat at 3 mg/kg, po by LC-MS/MS analysis
Assay type: ADME, organism-based
Design: dose 3 mg/kg, route oral
experimental parameters: in vivo
assay metric: Cmax (ng/mL)
One number for each entry, in ng/mL.

Query :: Report measured Cmax; entry is `CC[C@H](Nc1ncnc2[nH]cnc12)c1nc2cccc(F)c2c(=O)n1-c1ccccc1`
Result :: 129

* * *

assay system: Phosphatidylinositol 4,5-bisphosphate 3-kinase catalytic subunit gamma isoform (Homo sapiens, UniProt P48736)
Sequence (P48736 whole entry, canonical isoform): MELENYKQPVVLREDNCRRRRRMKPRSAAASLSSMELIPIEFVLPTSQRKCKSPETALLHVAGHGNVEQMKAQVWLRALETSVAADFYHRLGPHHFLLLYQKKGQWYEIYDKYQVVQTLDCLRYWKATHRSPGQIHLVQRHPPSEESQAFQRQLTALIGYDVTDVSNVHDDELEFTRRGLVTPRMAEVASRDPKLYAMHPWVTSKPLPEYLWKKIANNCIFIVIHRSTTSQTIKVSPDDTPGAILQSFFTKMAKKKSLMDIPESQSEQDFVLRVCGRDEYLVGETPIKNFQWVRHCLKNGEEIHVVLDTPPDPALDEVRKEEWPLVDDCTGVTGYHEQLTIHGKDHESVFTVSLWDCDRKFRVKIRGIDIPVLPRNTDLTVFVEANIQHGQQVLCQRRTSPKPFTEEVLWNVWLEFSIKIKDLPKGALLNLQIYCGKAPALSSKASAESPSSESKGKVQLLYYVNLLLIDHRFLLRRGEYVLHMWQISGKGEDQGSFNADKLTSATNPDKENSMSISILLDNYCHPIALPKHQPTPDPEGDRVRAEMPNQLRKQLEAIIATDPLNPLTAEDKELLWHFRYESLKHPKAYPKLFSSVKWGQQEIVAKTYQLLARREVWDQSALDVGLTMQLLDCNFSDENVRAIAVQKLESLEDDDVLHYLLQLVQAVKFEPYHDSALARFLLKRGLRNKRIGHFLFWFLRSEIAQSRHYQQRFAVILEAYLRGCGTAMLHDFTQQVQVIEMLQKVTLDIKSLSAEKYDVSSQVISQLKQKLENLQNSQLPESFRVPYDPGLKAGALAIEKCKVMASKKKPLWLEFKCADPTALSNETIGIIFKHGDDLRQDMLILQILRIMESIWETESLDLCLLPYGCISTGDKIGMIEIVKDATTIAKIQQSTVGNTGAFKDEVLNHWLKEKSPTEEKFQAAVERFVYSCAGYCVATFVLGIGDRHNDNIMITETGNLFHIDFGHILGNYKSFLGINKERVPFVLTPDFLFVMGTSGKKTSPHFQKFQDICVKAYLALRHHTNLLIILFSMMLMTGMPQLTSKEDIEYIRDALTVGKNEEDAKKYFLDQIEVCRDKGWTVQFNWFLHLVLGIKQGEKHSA
assay comment: Inhibition of PI3K p110gamma (unknown origin) using lipid substrate after 40 mins by kinase-Glo assay
assay metric: pIC50
One number for each entry, as −log10 of the molar value.

[
  {
    "smiles": "COc1ncc(-c2ccc3ncnc(N[C@H]4CCN(C(=O)C5CCOCC5)C4)c3c2)cc1[N+](=O)[O-]",
    "pIC50": 6.70
  },
  {
    "smiles": "COc1ncc(-c2ccc3ncnc(N[C@H]4CCN(C(=O)C5CCOCC5)C4)c3c2)cc1C#N",
    "pIC50": 6.76
  }
]

In the following, a different compound is considered.
Query :: Identify pIC50 associated with the compound `COc1ccc(-c2ccc3ncnc(N[C@H]4CCN(C(=O)C5CC5)C4)c3c2)cn1`
Result :: 6.65

* * *

assay comment: Oral bioavailability in Sprague-Dawley rat at 3 mg/kg by LC-MS/MS analysis
Type: ADME, organism-based
experimental parameters: in vivo
assay metric: bioavailability (%)
Numbers only, in %.

Query :: For the compound CC[C@H](Nc1ncnc2[nH]cnc12)c1nc2cccc(F)c2c(=O)n1-c1ccccc1 [IDELALISIB] , give its reported bioavailability.
Result :: 39

* * *

assay comment: Cmax in Sprague-Dawley rat at 10 mg/kg, po by LC-MS/MS analysis
Format: ADME, organism-based
Parameters: dose 10 mg/kg, route oral
experimental parameters: in vivo
assay metric: Cmax

Query :: Give Cmax for `COc1ncc(-c2ccc3ncnc(N[C@H]4CCN(C(=O)C5CCOCC5)C4)c3c2)cc1C#N`
Result :: 664 ng/mL

* * *

assay system: Phosphatidylinositol 4,5-bisphosphate 3-kinase catalytic subunit alpha isoform (Homo sapiens, UniProt P42336)
Sequence (P42336 whole entry, canonical isoform): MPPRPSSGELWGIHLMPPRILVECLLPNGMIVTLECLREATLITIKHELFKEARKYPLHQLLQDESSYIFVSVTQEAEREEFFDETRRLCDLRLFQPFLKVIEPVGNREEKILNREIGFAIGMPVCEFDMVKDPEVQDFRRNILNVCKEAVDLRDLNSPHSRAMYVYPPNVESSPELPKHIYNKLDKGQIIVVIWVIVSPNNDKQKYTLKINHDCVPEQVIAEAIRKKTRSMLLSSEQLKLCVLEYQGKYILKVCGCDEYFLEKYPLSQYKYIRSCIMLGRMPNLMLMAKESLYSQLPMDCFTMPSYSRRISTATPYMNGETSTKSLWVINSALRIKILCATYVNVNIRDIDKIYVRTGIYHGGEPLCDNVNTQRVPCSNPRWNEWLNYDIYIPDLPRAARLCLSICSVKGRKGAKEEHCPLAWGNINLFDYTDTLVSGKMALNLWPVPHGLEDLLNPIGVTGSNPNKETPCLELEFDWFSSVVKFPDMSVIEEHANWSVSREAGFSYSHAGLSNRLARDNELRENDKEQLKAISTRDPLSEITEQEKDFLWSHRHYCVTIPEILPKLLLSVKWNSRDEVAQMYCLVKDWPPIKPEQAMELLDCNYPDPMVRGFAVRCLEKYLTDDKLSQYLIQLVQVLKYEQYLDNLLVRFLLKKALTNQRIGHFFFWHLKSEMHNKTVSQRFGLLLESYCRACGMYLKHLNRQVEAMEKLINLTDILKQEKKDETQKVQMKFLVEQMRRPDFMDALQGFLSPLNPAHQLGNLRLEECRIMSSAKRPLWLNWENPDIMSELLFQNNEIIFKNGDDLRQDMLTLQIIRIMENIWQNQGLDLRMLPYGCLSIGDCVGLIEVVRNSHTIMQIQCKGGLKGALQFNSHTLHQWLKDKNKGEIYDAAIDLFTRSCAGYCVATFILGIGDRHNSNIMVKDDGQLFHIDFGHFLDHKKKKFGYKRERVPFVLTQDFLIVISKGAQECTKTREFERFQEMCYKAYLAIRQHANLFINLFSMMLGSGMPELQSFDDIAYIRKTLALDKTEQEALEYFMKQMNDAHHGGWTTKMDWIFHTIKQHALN
assay comment: Inhibition of PI3K p110alpha (unknown origin) using lipid substrate after 40 mins by kinase-Glo assay
assay metric: IC50

[
  {
    "smiles": "COc1ncc(-c2ccc3ncnc(N[C@H]4CCN(C(=O)C5CCOCC5)C4)c3c2)cc1[N+](=O)[O-]",
    "observed measurement": "26.7 nM"
  },
  {
    "smiles": "COc1ccc(-c2ccc3ncnc(N[C@H]4CCN(C(=O)C5CC5)C4)c3c2)cn1",
    "observed measurement": "25.4 nM"
  }
]

Continue with the compound presented below.
Query :: Please supply the value of reported IC50 for the item `COc1ncc(-c2ccc3ncnc(N[C@H]4CCN(C(=O)C5CCOCC5)C4)c3c2)cc1C#N`
Result :: 25.6 nM

* * *

assay system: Phosphatidylinositol 4,5-bisphosphate 3-kinase catalytic subunit delta isoform (Homo sapiens)
assay comment: Inhibition of PI3K p110delta (unknown origin) using lipid substrate after 40 mins by kinase-Glo assay
// assign yes (1) if IC50 falls strictly below 5 nM, else no (0) (ties count as no (0))

# example entries with known answers
[
  {
    "smiles": "COc1ccc(-c2ccc3ncnc(N[C@H]4CCN(C(=O)c5ccccc5)C4)c3c2)cn1",
    "group label": "yes (1)"
  },
  {
    "smiles": "COc1ccc(-c2ccc3ncnc(N[C@H]4CCN(C(=O)C5CCCC5)C4)c3c2)cn1",
    "group label": "yes (1)"
  },
  {
    "smiles": "COc1ccc(-c2ccc3ncnc(N[C@H]4CCN(C(=O)C5CCOCC5)C4)c3c2)cc1C(N)=O",
    "group label": "no (0)"
  },
  {
    "smiles": "COc1ncc(-c2ccc3ncnc(N[C@H]4CCN(C(=O)C5CCOCC5)C4)c3c2)cc1C#N",
    "group label": "yes (1)"
  },
  {
    "smiles": "COc1ccc(-c2ccc3ncnc(N[C@H]4CCN(C(=O)OC(C)(C)C)C4)c3c2)cn1",
    "group label": "no (0)"
  },
  {
    "smiles": "COc1ccc(-c2ccc3ncnc(N[C@H]4CCN(C(=O)C5CCCCC5)C4)c3c2)cn1",
    "group label": "yes (1)"
  }
]

Query :: Dear colleague, could you confirm whether IC50 of `COc1ccc(-c2ccc3ncnc(N[C@H]4CCN(C(=O)C5CCC5)C4)c3c2)cn1` falls below 5 nM? Thanks.
Result :: no (0)

Query :: Is 5 nM strictly greater than the compound's reported IC50? compound: `COc1ccc(-c2ccc3ncnc(N[C@H]4CCN(C(=O)CC(C)(C)C)C4)c3c2)cn1`
Result :: yes (1)

Query :: # check: IC50 < 5 nM for `COc1ccc(-c2ccc3ncnc(N[C@H]4CCN(S(=O)(=O)C5CC5)C4)c3c2)cn1`
Result :: no (0)

* * *

assay system: Phosphatidylinositol 4,5-bisphosphate 3-kinase catalytic subunit delta isoform (Homo sapiens) (UniProt O00329)
Sequence (whole entry): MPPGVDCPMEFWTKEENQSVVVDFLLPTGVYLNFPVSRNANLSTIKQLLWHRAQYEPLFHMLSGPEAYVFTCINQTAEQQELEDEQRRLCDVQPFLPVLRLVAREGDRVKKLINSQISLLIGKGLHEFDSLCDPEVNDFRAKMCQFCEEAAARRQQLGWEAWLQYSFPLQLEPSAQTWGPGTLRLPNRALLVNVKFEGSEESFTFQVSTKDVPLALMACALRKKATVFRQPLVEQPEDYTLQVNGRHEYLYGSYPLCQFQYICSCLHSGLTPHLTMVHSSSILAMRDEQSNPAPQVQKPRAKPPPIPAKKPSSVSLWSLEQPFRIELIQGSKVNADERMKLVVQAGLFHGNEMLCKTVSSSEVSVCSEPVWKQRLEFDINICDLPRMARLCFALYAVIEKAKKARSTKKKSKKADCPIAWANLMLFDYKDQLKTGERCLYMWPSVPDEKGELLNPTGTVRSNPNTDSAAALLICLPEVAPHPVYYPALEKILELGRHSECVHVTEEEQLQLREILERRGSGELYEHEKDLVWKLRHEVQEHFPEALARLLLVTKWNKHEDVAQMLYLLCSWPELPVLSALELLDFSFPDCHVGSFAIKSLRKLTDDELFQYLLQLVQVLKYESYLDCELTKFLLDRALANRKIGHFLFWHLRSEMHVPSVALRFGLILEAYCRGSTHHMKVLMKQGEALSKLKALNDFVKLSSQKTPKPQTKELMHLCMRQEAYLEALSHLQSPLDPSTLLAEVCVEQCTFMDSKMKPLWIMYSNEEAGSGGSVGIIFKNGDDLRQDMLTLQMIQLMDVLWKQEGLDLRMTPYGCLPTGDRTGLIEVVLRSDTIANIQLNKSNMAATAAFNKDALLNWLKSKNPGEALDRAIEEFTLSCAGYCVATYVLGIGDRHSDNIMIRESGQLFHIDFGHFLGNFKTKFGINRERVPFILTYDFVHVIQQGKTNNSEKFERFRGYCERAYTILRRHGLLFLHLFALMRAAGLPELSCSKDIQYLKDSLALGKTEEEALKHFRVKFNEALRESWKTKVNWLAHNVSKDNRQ
assay comment: Inhibition of PI3K p110delta (unknown origin) at 100 nM using lipid substrate after 40 mins by kinase-Glo assay relative to control
Label false (0) if inhibition falls below 90%; label true (1) in every other case.

The examples below pair each entry with its known result.
[
  {
    "smiles": "O=C(C1CC1)N1CC[C@H](Nc2ncnc3ccc(-c4ccc(OC(F)(F)F)cc4)cc23)C1",
    "group label": "false (0)"
  },
  {
    "smiles": "C=CC(=O)N1CC[C@H](Nc2ncnc3ccc(-c4ccc(OC)nc4)cc23)C1",
    "group label": "false (0)"
  },
  {
    "smiles": "COc1ccc(-c2ccc3ncnc(N[C@H]4CCN(C(=O)c5ccccc5)C4)c3c2)cn1",
    "group label": "false (0)"
  },
  {
    "smiles": "COc1ccc(-c2ccc3ncnc(N[C@H]4CCNC4)c3c2)cn1",
    "group label": "false (0)"
  }
]

Query :: Form field: inhibition at least 90%? Entry: `COc1ccc(-c2ccc3ncnc(N[C@H]4CCN(C(=O)C5CC5)C4)c3c2)cn1`
Result :: true (1)

Query :: Test whether the compound `COc1cc(C(N)=O)cc(-c2ccc3ncnc(N[C@H]4CCN(C(=O)OC(C)(C)C)C4)c3c2)c1` records inhibition of 90% or higher.
Result :: false (0)

Query :: Evaluate `COc1ccc(-c2ccc3ncnc(N[C@H]4CCN(C(=O)C5CCCC5)C4)c3c2)cn1` : inhibition at minimum 90%?
Result :: true (1)

* * *

assay system: Phosphatidylinositol 4,5-bisphosphate 3-kinase catalytic subunit delta isoform (Homo sapiens) (UniProt O00329)
Sequence (whole entry): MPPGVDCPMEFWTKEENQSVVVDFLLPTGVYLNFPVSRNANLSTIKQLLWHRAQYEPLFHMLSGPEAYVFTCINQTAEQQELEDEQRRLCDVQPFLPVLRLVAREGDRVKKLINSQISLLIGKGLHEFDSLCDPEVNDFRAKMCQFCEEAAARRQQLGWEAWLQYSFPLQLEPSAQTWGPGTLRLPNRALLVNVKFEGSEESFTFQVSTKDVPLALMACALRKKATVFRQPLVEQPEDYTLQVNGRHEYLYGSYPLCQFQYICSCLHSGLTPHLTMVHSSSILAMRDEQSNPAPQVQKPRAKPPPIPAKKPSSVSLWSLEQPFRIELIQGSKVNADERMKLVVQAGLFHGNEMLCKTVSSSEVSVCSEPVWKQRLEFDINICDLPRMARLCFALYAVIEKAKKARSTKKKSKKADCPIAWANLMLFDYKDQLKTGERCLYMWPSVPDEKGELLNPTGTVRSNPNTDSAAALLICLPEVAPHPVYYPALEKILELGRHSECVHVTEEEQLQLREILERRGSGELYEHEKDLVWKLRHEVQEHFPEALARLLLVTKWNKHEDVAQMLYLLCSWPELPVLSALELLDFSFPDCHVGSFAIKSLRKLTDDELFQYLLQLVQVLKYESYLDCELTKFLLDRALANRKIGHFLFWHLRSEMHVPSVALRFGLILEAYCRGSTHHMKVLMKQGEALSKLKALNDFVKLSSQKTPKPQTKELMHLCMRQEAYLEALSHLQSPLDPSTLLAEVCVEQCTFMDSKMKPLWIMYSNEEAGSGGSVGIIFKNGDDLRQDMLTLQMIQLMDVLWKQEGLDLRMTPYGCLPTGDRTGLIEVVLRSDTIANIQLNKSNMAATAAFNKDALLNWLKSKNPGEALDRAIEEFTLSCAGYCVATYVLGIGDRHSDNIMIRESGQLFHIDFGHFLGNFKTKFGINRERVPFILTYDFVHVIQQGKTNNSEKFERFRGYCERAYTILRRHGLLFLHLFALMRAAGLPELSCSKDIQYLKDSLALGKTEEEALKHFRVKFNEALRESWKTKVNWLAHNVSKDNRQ
assay comment: Inhibition of PI3K p110delta (unknown origin) at 100 nM using lipid substrate after 40 mins by kinase-Glo assay relative to control
Quick rule: inhibition of at least 90% means True, below that means False.

Below, 5 molecules whose answers are already recorded.
[
  {
    "smiles": "COc1ncc(-c2ccc3ncnc(N[C@H]4CCN(C(=O)OC(C)(C)C)C4)c3c2)cc1[N+](=O)[O-]",
    "group label": "False"
  },
  {
    "smiles": "COc1ccc(-c2ccc3ncnc(N[C@H]4CCN(C(C)=O)C4)c3c2)cn1",
    "group label": "False"
  },
  {
    "smiles": "COc1ccc(-c2ccc3ncnc(N[C@H]4CCN(C(=O)C5CCCCC5)C4)c3c2)cn1",
    "group label": "False"
  },
  {
    "smiles": "CC(C)(C)OC(=O)N1CC[C@H](Nc2ncnc3ccc(-c4ccc(OC(F)(F)F)cc4)cc23)C1",
    "group label": "False"
  },
  {
    "smiles": "COc1ccc(-c2ccc3ncnc(N[C@H]4CCN(S(=O)(=O)C5CC5)C4)c3c2)cn1",
    "group label": "False"
  }
]

Query :: Could you please find out whether `COc1ccc(-c2ccc3ncnc(N[C@H]4CCN(C(=O)C5CCC5)C4)c3c2)cn1` has inhibition that meets 90% or exceeds it?
Result :: True

Query :: Exam item: decide whether the reported inhibition for `COc1ccc(-c2ccc3ncnc(N[C@H]4CCN(C(=O)C(C)(C)C)C4)c3c2)cn1` is at least 90%.
Result :: False

Query :: Kindly determine if inhibition recorded for `COc1ncc(-c2ccc3ncnc(N[C@H]4CCN(C(=O)C5CC5)C4)c3c2)cc1C#N` is above or exactly 90%.
Result :: True
